# experimentalDetails: in vitro
# recordedConditions: human, hela cells, % viability
readoutName: viability at 28.5 h, 10 µM (%)

[[record]]
compound = "COc1ccc(S(=O)(=O)NCCSCc2cccc(Cl)c2)c(Cl)c1Cl"
valuereported = 97.6

[[record]]
compound = "CC(C)[C@@]1(C)SC(N[C@H]2C[C@H]3C[C@@H]2C[C@@H]3O)=NC1=O"
valuereported = 102

[[record]]
compound = "C=CCn1c(SCC(=O)Nc2nc3ccc(OCC)cc3s2)nc2cc(C(=O)O)ccc2c1=O"
valuereported = 113

[[record]]
compound = "CC(C)(C)CC(=O)N[C@H]1C[C@H]2C(=O)Nc3ccccc3C(=O)N2C1"
valuereported = 96.2

[[record]]
compound = "CCC(=O)N1CCC[C@H](Cn2nc(-c3cccs3)ccc2=O)C1"
valuereported = 95.3

[[record]]
compound = "CCC(C)NC(=O)Cn1c(C2CCOCC2)cc2cc(C)cnc21 (stereo not shown)"
valuereported = 94.3

[[record]]
compound = "CC(C)(C)OC(=O)N1CCC[C@@H]1C(=O)c1cccs1"
valuereported = 100

[[record]]
compound = "CCn1cc(-c2cncn2CC(C)n2nc(C)cc2C)cn1 (stereo not shown)"
valuereported = 87.1

[[record]]
compound = "COC(=O)c1ccc(S(=O)(=O)N2CCc3ccccc3C2)cc1"
valuereported = 109

[[record]]
compound = "Cn1c2c(c3ccccc31)C(=O)NCC2"
valuereported = 89

[[record]]
compound = "COc1ccc(OC)c(CN2CCCN(C)CC2)c1"
valuereported = 96.1

[[record]]
compound = "CN1CCN(S(=O)(=O)c2ccc3c(c2)oc(=O)c2cc(S(=O)(=O)N4CCN(C)CC4)ccc23)CC1"
valuereported = 85

[[record]]
compound = "Cc1ccc(NC(=O)c2cnc3scc(C)n3c2=O)cc1C"
valuereported = 108

[[record]]
compound = "CN(C)CCO/N=C1\\CC2(CCCC2)c2ccc(Cl)cc21"
valuereported = 78.1

[[record]]
compound = "Cc1cc(C)nc(N2CCC(CC(=O)Nc3ccccc3CN3CCCC3)CC2)n1"
valuereported = 104

[[record]]
compound = "O=C(c1cc(F)c(F)cc1F)N1CCC2(CCCN(C/C=C/c3ccccc3)C2)C1 (stereo not shown)"
valuereported = 107

[[record]]
compound = "CC1CCN(CN2C(=O)C(=O)c3ccccc32)CC1"
valuereported = 91.7

[[record]]
compound = "Nc1cccc(-c2cc(Nc3ccc(C4CCCCC4)cc3)ncn2)c1"
valuereported = 88.8

[[record]]
compound = "Cc1nn(C)cc1S(=O)(=O)NCC1(c2ccccc2)CCCC1"
valuereported = 85.9


----------
# experimentalDetails: in vitro
# recordedConditions: human, hela cells, % viability
readoutName: viability at 28.5 h, 10 µM (%)

[[record]]
compound = "Cc1cccc(C)c1NC(=O)CC(C(=O)O)N(C)C (stereo not drawn) [CBK267022]"
unitstring = "%"
valuereported = 90.9

[[record]]
compound = "CCOC1(c2ccccc2)N=C2C(Cl)=CC(C(F)(F)F)=CN2N=C1c1ccccc1 (stereo not drawn) [CBK020634]"
unitstring = "%"
valuereported = 91.4

[[record]]
compound = "O=C(CCCc1ccccn1)N(Cc1ccccn1)C1CCCC1 [CBK282033]"
unitstring = "%"
valuereported = 99.9

[[record]]
compound = "Cc1onc(-c2ccccc2Cl)c1C(=O)N(Cc1nc(-c2ccccc2)no1)C1CCCCC1 [CBK268790]"
unitstring = "%"
valuereported = 108

[[record]]
compound = "Cc1nc2cc(OCc3nc(C(=O)N(C)CCN(C)C)co3)ccc2s1 [CBK306685]"
unitstring = "%"
valuereported = 106

[[record]]
compound = "O=C(NC1CC2(CCCCC2)Oc2ccccc21)C1CCOC1 (stereo not drawn) [CBK283760]"
unitstring = "%"
valuereported = 105

[[record]]
compound = "O=C(Cn1c(=O)[nH]c2c(oc3ccccc32)c1=O)Nc1ccccc1 [CBK287818]"
unitstring = "%"
valuereported = 104

[[record]]
compound = "O=C(O)CSCc1ccc(C(=O)O)o1 [CBK263267]"
unitstring = "%"
valuereported = 107

[[record]]
compound = "O=C(NCc1ccccc1Cl)C1CCCN(S(=O)(=O)c2ccccc2)C1 (stereo not drawn) [CBK269086]"
unitstring = "%"
valuereported = 92.8


All values here come from paper PMC12040169.
